# Tested on: E. coli ATCC25922 strain
# test: MIC 50, broth micro-dilution, wild-type Escherichia coli
# Format: cell-based
# setup-conditions: Escherichia coli, ATCC25922, 18 h, MH2, 18 h
// reported MIC50 per item
A number alone suffices; assume µM.

{"columns": ["compound", "assayed-target", "uom", "observed-result"],
 "data": [
  ["N=C(NCC1CCCO1)NC1[C@@H](O)C(OC2[C@@H](F)[C@H](O[C@H]3OC(CN)[C@@H](O)CC3N)C(N)C[C@H]2NC(=O)[C@@H](O)CCN)O[C@H](CO)[C@H]1O (stereo partly shown)", "E. coli ATCC25922 strain", "µM", 0.5],
  ["N=C(N)NC1[C@@H](O)C(OC2[C@@H](F)[C@H](O[C@H]3OC(CN)[C@@H](O)[C@H](O)C3O)C(N)C[C@H]2NC(=O)[C@@H](O)CCN)O[C@H](CO)[C@H]1O (stereo partly drawn) [ABX3003, 3′epi-KanaA-AHB-F-Gua]", "E. coli ATCC25922 strain", "µM", 2],
  ["N=C(NC[C@@H]1CCCN1)NC1[C@@H](O)C(OC2[C@@H](F)[C@H](O[C@H]3OC(CN)[C@@H](O)CC3N)C(N)C[C@H]2NC(=O)[C@@H](O)CCN)O[C@H](CO)[C@H]1O (stereo partly shown)", "E. coli ATCC25922 strain", "µM", 0.25],
  ["N=C(NC[C@H]1CNCCO1)NC1[C@@H](O)C(OC2[C@@H](F)[C@H](O[C@H]3OC(CN)[C@@H](O)CC3N)C(N)C[C@H]2NC(=O)[C@@H](O)CCN)O[C@H](CO)[C@H]1O (stereo partly shown)", "E. coli ATCC25922 strain", "µM", 0.25],
  ["N=C(NCc1ccncc1)NC1[C@@H](O)C(OC2[C@@H](F)[C@H](O[C@H]3OC(CN)[C@@H](O)CC3N)C(N)C[C@H]2NC(=O)[C@@H](O)CCN)O[C@H](CO)[C@H]1O (stereo partly shown)", "E. coli ATCC25922 strain", "µM", 1]
]}

Using the record for N=C(N)NC1[C@@H](O)C(OC2[C@@H](F)[C@H](O[C@H]3OC(CN)[C@@H](O)CC3N)C(N)C[C@H]2NC(=O)[C@@H](F)CCN)O[C@H](CO)[C@H]1O (stereo partly shown) , report its MIC50. 1

Using the record for N=C(NCCN)NC1C(O)[C@@H](CO)OC(OC2C(F)[C@H](O[C@H]3OC(CN)[C@@H](O)CC3N)C(N)C[C@H]2NC(=O)[C@@H](O)CCN)[C@@H]1O (stereo partly shown) , report its MIC50. 0.5

Using the record for N=C(NC[C@@H]1CCNC1)NC1[C@@H](O)C(OC2[C@@H](F)[C@H](O[C@H]3OC(CN)[C@@H](O)CC3N)C(N)C[C@H]2NC(=O)[C@@H](O)CCN)O[C@H](CO)[C@H]1O (stereo partly shown) , report its MIC50. 0.25

Using the record for N=C(NCCO)NC1[C@@H](O)C(OC2[C@@H](F)[C@H](O[C@H]3OC(CN)[C@@H](O)CC3N)C(N)C[C@H]2NC(=O)[C@@H](O)CCN)O[C@H](CO)[C@H]1O (stereo partly shown) [ABX5029, Tobra-AHB-F-Gua 2-hydroxy-ethyl] , report its MIC50. 0.5

Using the record for N=C(N)NC1[C@@H](O)C(OC2[C@@H](F)[C@H](O[C@H]3OC(CNCCO)[C@@H](O)CC3N)C(N)C[C@H]2NC(=O)[C@@H](O)CCN)O[C@H](CO)[C@H]1O (stereo partly shown) [ABX5045, 6N-2-hydroxy-ethyl-Tobra-AHB-F-Gua] , report its MIC50. 1

Using the record for N=C(NCC1CC1)NC1[C@@H](O)C(OC2[C@@H](F)[C@H](O[C@H]3OC(CN)[C@@H](O)CC3N)C(N)C[C@H]2NC(=O)[C@@H](O)CCN)O[C@H](CO)[C@H]1O (stereo partly shown) , report its MIC50. 0.5

Using the record for N=C(NC[C@H]1CCNC1)NC1[C@@H](O)C(OC2[C@@H](F)[C@H](O[C@H]3OC(CN)[C@@H](O)CC3N)C(N)C[C@H]2NC(=O)[C@@H](O)CCN)O[C@H](CO)[C@H]1O (stereo partly shown) , report its MIC50. 0.25

Data provenance is patent US20220127297A1.
